Tested on: Candida albicans ATCC 10231
Format: cell-based
Settings: ATCC 10231, 24 h
Where a SMILES comes first, the peptide text is derived from it. Bridges are numbered along the chain shown (N, C = ends). The star is where a group is joined. Palmitoyl = CCCCCCCCCCCCCCCC(=O)*
MIC C. albicans under 20 µg/mL gets Met, anything at or over 20 µg/mL gets Not met.

[[record]]
compound = "CCCCCCCCCCCCCCCC(=O)N[C@@H](CCCNC(=N)N)C(=O)N[C@@H](CCCCN)C(=O)N[C@@H](CCCCN)C(=O)N[C@@H](CCCCN)C(N)=O [L3, C16-RKKK-NH2] (Palmitoyl-RKKK-NH2)"
qualitative_label = "Met"

[[record]]
compound = "CCCCCCCCCCCCCCCC(=O)N[C@H]1CSSC[C@@H](C(N)=O)NC(=O)[C@H](CCCCN)NC(=O)[C@H](CCCCN)NC(=O)[C@H](CCCCN)NC(=O)[C@H](CCCNC(=N)N)NC1=O [C3, C16-CRKKKC-NH2] (Palmitoyl-CRKKKC-NH2; disulfide 1-6)"
qualitative_label = "Met"

[[record]]
compound = "CCCCCCCCCCCCCCCC(=O)N[C@@H](CCCCN)C(=O)N[C@@H](CCCNC(=N)N)C(=O)N[C@@H](CCCCN)C(=O)N[C@@H](CCCCN)C(N)=O [L4, C16-KRKK-NH2] (Palmitoyl-KRKK-NH2)"
qualitative_label = "Met"

[[record]]
compound = "CCCCCCCCCCCCCCCC(=O)N[C@H]1CSSC[C@@H](C(N)=O)NC(=O)[C@H](CCCCN)NC(=O)[C@H](CCCCN)NC(=O)[C@H](CCCNC(=N)N)NC(=O)[C@H](CCCNC(=N)N)NC1=O [C7, C16-CRRKKC-NH2] (Palmitoyl-CRRKKC-NH2; disulfide 1-6)"
qualitative_label = "Met"

[[record]]
compound = "CCCCCCCCCCCCCCCC(=O)N[C@@H](CCCCN)C(=O)N[C@@H](CCCCN)C(=O)N[C@@H](CCCCN)C(=O)N[C@@H](CCCNC(=N)N)C(N)=O [L6, C16-KKKR-NH2] (Palmitoyl-KKKR-NH2)"
qualitative_label = "Not met"

[[record]]
compound = "CCCCCCCCCCCCCCCC(=O)N[C@@H](CCCCN)C(=O)N[C@@H](CCCCN)C(=O)N[C@@H](CCCNC(=N)N)C(=O)N[C@@H](CCCCN)C(N)=O [L5, C16-KKRK-NH2] (Palmitoyl-KKRK-NH2)"
qualitative_label = "Not met"

[[record]]
compound = "CCCCCCCCCCCCCCCC(=O)N[C@@H](CCCCN)C(=O)N[C@@H](CCCCN)C(=O)N[C@@H](CCCCN)C(N)=O"
qualitative_label = "Not met"

[[record]]
compound = "CCCCCCCCCCCCCCCC(=O)N[C@H]1CSSC[C@@H](C(N)=O)NC(=O)[C@H](CCCCN)NC(=O)[C@H](CCCNC(=N)N)NC(=O)[C@H](CCCCN)NC(=O)[C@H](CCCCN)NC1=O [C5, C16-CKKRKC-NH2] (Palmitoyl-CKKRKC-NH2; disulfide 1-6)"
qualitative_label = "Met"

[[record]]
compound = "CCCCCCCCCCCCCCCC(=O)N[C@H]1CSSC[C@@H](C(N)=O)NC(=O)[C@H](CCCCN)NC(=O)[C@H](CCCCN)NC(=O)[C@H](CCCNC(=N)N)NC(=O)[C@H](CCCCN)NC1=O [C4, C16-CKRKKC-NH2] (Palmitoyl-CKRKKC-NH2; disulfide 1-6)"
qualitative_label = "Met"

[[record]]
compound = "CCCCCCCCCCCCCCCC(=O)N[C@H]1CSSC[C@@H](C(N)=O)NC(=O)[C@H](CCCNC(=N)N)NC(=O)[C@H](CCCCN)NC(=O)[C@H](CCCCN)NC(=O)[C@H](CCCCN)NC1=O [C6, C16-CKKKRC-NH2] (Palmitoyl-CKKKRC-NH2; disulfide 1-6)"
qualitative_label = "Met"


====

System: human red blood cells (hRBCs)
Experiment: Hemolysis assay
Format: cell-based
Settings: peptide concentration causing 50% hemolysis; 4% (v/v) hRBCs in PBS, 1 h, 37 °C, absorbance 540 nm, triplicate
Where a SMILES comes first, the peptide text is derived from it. Bridges are numbered along the chain shown (N, C = ends). The star is where a group is joined. Palmitoyl = CCCCCCCCCCCCCCCC(=O)*
HC50 under 90 µg/mL gets Met, anything at or over 90 µg/mL gets Not met.

[[record]]
molecule = "CCCCCCCCCCCCCCCC(=O)N[C@H]1CSSC[C@@H](C(N)=O)NC(=O)[C@H](CCCNC(=N)N)NC(=O)[C@H](CCCCN)NC(=O)[C@H](CCCCN)NC(=O)[C@H](CCCCN)NC1=O [C6, C16-CKKKRC-NH2] (Palmitoyl-CKKKRC-NH2; disulfide 1-6)"
qualitative_label = "Met"

[[record]]
molecule = "CCCCCCCCCCCCCCCC(=O)N[C@H]1CSSC[C@@H](C(N)=O)NC(=O)[C@H](CCCCN)NC(=O)[C@H](CCCCN)NC(=O)[C@H](CCCNC(=N)N)NC(=O)[C@H](CCCCN)NC1=O [C4, C16-CKRKKC-NH2] (Palmitoyl-CKRKKC-NH2; disulfide 1-6)"
qualitative_label = "Not met"

[[record]]
molecule = "CCCCCCCCCCCCCCCC(=O)N[C@H]1CSSC[C@@H](C(N)=O)NC(=O)[C@H](CCCCN)NC(=O)[C@H](CCCNC(=N)N)NC(=O)[C@H](CCCCN)NC(=O)[C@H](CCCCN)NC1=O [C5, C16-CKKRKC-NH2] (Palmitoyl-CKKRKC-NH2; disulfide 1-6)"
qualitative_label = "Not met"

[[record]]
molecule = "CCCCCCCCCCCCCCCC(=O)N[C@H]1CSSC[C@@H](C(N)=O)NC(=O)[C@H](CCCCN)NC(=O)[C@H](CCCCN)NC(=O)[C@H](CCCCN)NC(=O)[C@H](CCCCN)NC1=O [C2, C16-CKKKKC-NH2] (Palmitoyl-CKKKKC-NH2; disulfide 1-6)"
qualitative_label = "Met"

[[record]]
molecule = "CCCCCCCCCCCCCCCC(=O)N[C@@H](CCCNC(=N)N)C(=O)N[C@@H](CCCNC(=N)N)C(=O)N[C@@H](CCCCN)C(=O)N[C@@H](CCCCN)C(N)=O [L7, C16-RRKK-NH2] (Palmitoyl-RRKK-NH2)"
qualitative_label = "Met"


====

Entries and their measured MIC C. tropicalis follow.
Test system: Candida tropicalis PCM 2709-FY
Type: cell-based
Conditions: PCM 2709-FY, 24 h
Where a SMILES comes first, the peptide text is derived from it. Bridges are numbered along the chain shown (N, C = ends). The star is where a group is joined. Palmitoyl = CCCCCCCCCCCCCCCC(=O)*
quantity_name: MIC C. tropicalis (µg/mL)

[[record]]
compound = "CCCCCCCCCCCCCCCC(=O)N[C@H]1CSSC[C@@H](C(N)=O)NC(=O)[C@H](CCCCN)NC(=O)[C@H](CCCCN)NC(=O)[C@H](CCCNC(=N)N)NC(=O)[C@H](CCCCN)NC1=O [C4, C16-CKRKKC-NH2] (Palmitoyl-CKRKKC-NH2; disulfide 1-6)"
quantitative_readout = 2

[[record]]
compound = "CCCCCCCCCCCCCCCC(=O)N[C@H]1CSSC[C@@H](C(N)=O)NC(=O)[C@H](CCCCN)NC(=O)[C@H](CCCNC(=N)N)NC(=O)[C@H](CCCCN)NC(=O)[C@H](CCCCN)NC1=O [C5, C16-CKKRKC-NH2] (Palmitoyl-CKKRKC-NH2; disulfide 1-6)"
quantitative_readout = 4

[[record]]
compound = "CCCCCCCCCCCCCCCC(=O)N[C@H]1CSSC[C@@H](C(N)=O)NC(=O)[C@H](CCCNC(=N)N)NC(=O)[C@H](CCCCN)NC(=O)[C@H](CCCCN)NC(=O)[C@H](CCCCN)NC1=O [C6, C16-CKKKRC-NH2] (Palmitoyl-CKKKRC-NH2; disulfide 1-6)"
quantitative_readout = 2

[[record]]
compound = "CCCCCCCCCCCCCCCC(=O)N[C@@H](CCCCN)C(=O)N[C@@H](CCCCN)C(=O)N[C@@H](CCCCN)C(N)=O [L1, C16-KKK-NH2]"
quantitative_readout = 8

[[record]]
compound = "CCCCCCCCCCCCCCCC(=O)N[C@@H](CCCCN)C(=O)N[C@@H](CCCCN)C(=O)N[C@@H](CCCCN)C(=O)N[C@@H](CCCNC(=N)N)C(N)=O [L6, C16-KKKR-NH2] (Palmitoyl-KKKR-NH2)"
quantitative_readout = 8


====

Entries and their measured MIC C. glabrata follow.
Tested on: Candida glabrata ATCC 15126
Format: cell-based
Conditions: ATCC 15126, 24 h
Excerpt: The Staphylococcus aureus ATCC 25923, Staphylococcus epidermidis ATCC 14990, Escherichia coli ATCC 25922, Pseudomonas aeruginosa ATCC 9027, Candida albicans ATCC 10231, Candida glabrata ATCC 15126, Candida lipolytica PCM 2680-FY, and Candida tropicalis PCM 2709-FY strains were acquired from the Polish Collection of Microorganisms (PCM, Polish Academy of Sciences, Wrocław, Poland) and from the American Type Culture Collection (ATCC). […]
Where a SMILES comes first, the peptide text is derived from it. The star is where a group is joined. Palmitoyl = CCCCCCCCCCCCCCCC(=O)*
quantity_name: MIC C. glabrata

[[record]]
compound = "CCCCCCCCCCCCCCCC(=O)N[C@@H](CCCCN)C(=O)N[C@@H](CCCCN)C(=O)N[C@@H](CCCCN)C(=O)N[C@@H](CCCCN)C(N)=O [L2, C16-KKKK-NH2] (Palmitoyl-KKKK-NH2)"
system_tested = "Candida glabrata ATCC 15126"
quantity_name = "MIC C. glabrata"
result = "64 µg/mL"

[[record]]
compound = "CCCCCCCCCCCCCCCC(=O)N[C@@H](CCCCN)C(=O)N[C@@H](CCCCN)C(=O)N[C@@H](CCCCN)C(=O)N[C@@H](CCCNC(=N)N)C(N)=O [L6, C16-KKKR-NH2] (Palmitoyl-KKKR-NH2)"
system_tested = "Candida glabrata ATCC 15126"
quantity_name = "MIC C. glabrata"
result = "64 µg/mL"

[[record]]
compound = "CCCCCCCCCCCCCCCC(=O)N[C@@H](CCCNC(=N)N)C(=O)N[C@@H](CCCNC(=N)N)C(=O)N[C@@H](CCCCN)C(=O)N[C@@H](CCCCN)C(N)=O [L7, C16-RRKK-NH2] (Palmitoyl-RRKK-NH2)"
system_tested = "Candida glabrata ATCC 15126"
quantity_name = "MIC C. glabrata"
result = "16 µg/mL"

